Molecular target: ZFP SBS#344 (synthetic)
Sequence (chain, as listed by the source): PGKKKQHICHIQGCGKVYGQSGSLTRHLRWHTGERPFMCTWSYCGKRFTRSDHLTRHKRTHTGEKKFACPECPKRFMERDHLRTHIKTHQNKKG
Test: EMSA
Details: tags: MBP fusion
test-readout: Kd (nM)
Numbers only here, please. The scale is nM.

Summary for this binder, TGCGGGGCAA (dsDNA) DNA 1: TGCGGGGCAA DNA 2: TTGCCCCGCA : Kd is 6
